Origin of values: patent US20240350458A1

Each entry below lists one item and its recorded IC50 value.
Test system: HBL1
procedure-text: MTT proliferation assay, B-cell lymphoma cell line
Type: cell-based
condition-info: HBL1, 72 h of drug incubation

molecule | limit-qualifier | IC50 (nM)
CS(=O)(=O)Nc1ccc2c(c1)/C(=C/c1cccs1)C(=O)N2 [FC96, reference compound] | > | 20000
Cc1ccc(S(=O)(=O)Nc2ccc3c(c2)C(=Cc2nccn2C)C(=O)N3)cc1 (stereo in doubt) | = | 40
CS(=O)(=O)Nc1ccc2c(c1)/C(=C/c1cnc[nH]1)C(=O)N2 [FC100, reference compound] | > | 20000
Cc1ccc(S(=O)(=O)Nc2ccc3c(c2)/C(=C/c2cccs2)C(=O)N3)cc1 | = | 25
Cc1ccc(S(=O)(=O)Nc2ccc3c(c2)/C(=C/c2cnc[nH]2)C(=O)N3)cc1 | = | 600

----------
Each entry below lists one item and its recorded IC50 value.
Tested on: SUDHL10
procedure-text: MTT proliferation assay, B-cell lymphoma cell line
Assay type: cell-based
condition-info: Homo sapiens, SU-DHL10; SUDHL10, 72 h of drug incubation
Experimental: All the above compounds were tested in vitro for their anticancer activity against a panel of eight B-cell lymphoma cell lines by MTT proliferation assay. The tested cell lines belonging to mantle cell lymphoma (MCL: REC1, Z138), activated B-cell diffuse large B-cell lymphoma (ABC-DLBCL: R11, HBL1, U2932, TMD8), germinal center B-cell diffuse large B-cell lymphoma (GCB-DLBCL: SU-DHL-10, FARAGE) subtypes. […]

molecule | target-desc | IC50
Cc1ccc(S(=O)(=O)Nc2ccc3c(c2)/C(=C/c2cnc[nH]2)C(=O)N3)cc1 | SUDHL10 | 600 nM
CS(=O)(=O)Nc1ccc2c(c1)/C(=C/c1cnc[nH]1)C(=O)N2 [FC100, reference compound] | SUDHL10 | 19000 nM
Cc1ccc(S(=O)(=O)Nc2ccc3c(c2)/C(=C/c2cccs2)C(=O)N3)cc1 | SUDHL10 | 25 nM
Cc1ccc(S(=O)(=O)Nc2ccc3c(c2)C(=Cc2nccn2C)C(=O)N3)cc1 (stereo in doubt) | SUDHL10 | 50 nM
CS(=O)(=O)Nc1ccc2c(c1)/C(=C/c1cccs1)C(=O)N2 [FC96, reference compound] | SUDHL10 | > 20000 nM

----------
Test system: Nthory
procedure-text: MTT assay, ATC cell line, fixed concentrations
Type: cell-based
condition-info: Homo sapiens, 48 h, 100 nM, read-out: % of proliferating cells

chemical-string | viability at 0.1 µM, %
Cc1ccc(S(=O)(=O)Nc2ccc3c(c2)/C(=C/c2cn[nH]c2)C(=O)N3)cc1 | 58
Cc1ccc(S(=O)(=O)Nc2ccc3c(c2)/C(=C/c2cnc(C)[nH]2)C(=O)N3)cc1 | 77
Cc1ccc(S(=O)(=O)Nc2ccc3c(c2)/C(=C/c2ccn[nH]2)C(=O)N3)cc1 | 73
Cc1ccc(S(=O)(=O)Nc2ccc3c(c2)C(=C2c4ccccc4-c4ccccc42)C(=O)N3)cc1 | 94

----------
System: Nthory
procedure-text: MTT assay, ATC cell line, fixed concentrations
Assay type: cell-based
condition-info: Homo sapiens, 48 h, 100 nM, read-out: % of proliferating cells
Each entry below lists one item and its recorded viability at 0.1 µM value.
measured-metric: viability at 0.1 µM (%)

molecule | unit-spec | reported-value
Cc1ccc(S(=O)(=O)Nc2ccc3c(c2)/C(=C/c2ncc[nH]2)C(=O)N3)cc1 [SB19] | % | 61
Cc1ccc(S(=O)(=O)Nc2ccc3c(c2)C(=Cc2cccnc2N)C(=O)N3)cc1 [SB20A] | % | 77
Cc1ccc(S(=O)(=O)Nc2ccc3c(c2)C(=Cc2nccn2C)C(=O)N3)cc1 (stereo in doubt) [FC91] | % | 55
Cc1ccc(S(=O)(=O)Nc2ccc3c(c2)/C(=C/c2cnc[nH]2)C(=O)N3)cc1 [FC85] | % | 83

----------
Test system: SW1736
procedure-text: MTT assay, ATC cell line, fixed concentrations
Type: cell-based
condition-info: Homo sapiens, SW-1736, 48 h, SW1736, 20000 nM, read-out: % of proliferating cells
viability at 20 µM vs 60%: less than gives y; not less than gives n.

chemical-string | target-desc | label-class
Cc1ccc(S(=O)(=O)Nc2ccc3c(c2)/C(=C/c2cnc(C)[nH]2)C(=O)N3)cc1 | SW1736 | n
Cc1ccc(S(=O)(=O)Nc2ccc3c(c2)C(=C2c4ccccc4-c4ccccc42)C(=O)N3)cc1 | SW1736 | n
Cc1ccc(S(=O)(=O)Nc2ccc3c(c2)/C(=C/c2cnc[nH]2)C(=O)N3)cc1 | SW1736 | y
Cc1ccc(S(=O)(=O)Nc2ccc3c(c2)/C(=C/c2ccn[nH]2)C(=O)N3)cc1 | SW1736 | n

----------
Each entry below lists one item and its recorded viability at 0.02 µM value.
Tested on: SW1736
procedure-text: MTT assay, ATC cell line, fixed concentrations
Type: cell-based
condition-info: Homo sapiens, SW-1736, 48 h, SW1736, 20 nM, read-out: % of proliferating cells

molecule | viability at 0.02 µM (%)
Cc1ccc(S(=O)(=O)Nc2ccc3c(c2)C(=C2c4ccccc4-c4ccccc42)C(=O)N3)cc1 | 108
Cc1ccc(S(=O)(=O)Nc2ccc3c(c2)/C(=C/c2cnc(C)[nH]2)C(=O)N3)cc1 | 84
Cc1ccc(S(=O)(=O)Nc2ccc3c(c2)/C(=C/c2ccn[nH]2)C(=O)N3)cc1 | 81
Cc1ccc(S(=O)(=O)Nc2ccc3c(c2)C(=Cc2nccn2C)C(=O)N3)cc1 (stereo in doubt) | 73

----------
Test system: TC-71
procedure-text: MTT proliferation assay, Ewing sarcoma
Type: cell-based
condition-info: Ewing Sarcoma TC-71, 72 h exposure
pIC50: −log10 of the molar value.
measured-metric: pIC50

chemical-string | measured-metric | reported-value
Cc1ccc(S(=O)(=O)Nc2ccc3c(c2)/C(=C/c2cccs2)C(=O)N3)cc1 | pIC50 | 6.10

----------
Each entry below lists one item and its recorded viability at 0.02 µM value.
Tested on: 8505c
procedure-text: MTT assay, ATC cell line, fixed concentrations
Format: cell-based
condition-info: Homo sapiens, 48 h, 20 nM, read-out: % of proliferating cells
measured-metric: viability at 0.02 µM (%)

compound | measured-metric | reported-value
Cc1ccc(S(=O)(=O)Nc2ccc3c(c2)C(=Cc2nccn2C)C(=O)N3)cc1 (stereo in doubt) [FC91] | viability at 0.02 µM | 79
Cc1ccc(S(=O)(=O)Nc2ccc3c(c2)/C(=C/c2cnc(C)[nH]2)C(=O)N3)cc1 [SB14] | viability at 0.02 µM | 97
Cc1ccc(S(=O)(=O)Nc2ccc3c(c2)/C(=C/c2cn[nH]c2)C(=O)N3)cc1 [SB18] | viability at 0.02 µM | 80
Cc1ccc(S(=O)(=O)Nc2ccc3c(c2)C(=C2c4ccccc4-c4ccccc42)C(=O)N3)cc1 [SB21] | viability at 0.02 µM | 82
Cc1ccc(S(=O)(=O)Nc2ccc3c(c2)/C(=C/c2ccn[nH]2)C(=O)N3)cc1 [SB17] | viability at 0.02 µM | 90
Cc1ccc(S(=O)(=O)Nc2ccc3c(c2)C(=Cc2cccnc2N)C(=O)N3)cc1 [SB20A] | viability at 0.02 µM | 78
Cc1ccc(S(=O)(=O)Nc2ccc3c(c2)/C(=C/c2ncc[nH]2)C(=O)N3)cc1 [SB19] | viability at 0.02 µM | 74
Cc1ccc(S(=O)(=O)Nc2ccc3c(c2)/C(=C/c2cnc[nH]2)C(=O)N3)cc1 [FC85] | viability at 0.02 µM | 80

----------
System: A673
procedure-text: MTT proliferation assay, Ewing sarcoma
Assay type: cell-based
condition-info: Homo sapiens; Ewing Sarcoma A673, 72 h exposure
measured-metric: IC50 (µM)

chemical-string | reported-value
Cc1ccc(S(=O)(=O)Nc2ccc3c(c2)/C(=C/c2cccs2)C(=O)N3)cc1 | 3.2

----------
Tested on: eight B-cell lymphoma cell lines
procedure-text: MTT proliferation assay, panel of eight B-cell lymphoma cell lines
Type: cell-based
condition-info: B-cell; read-out: IC50 in all eight lymphoma cell lines
measured-metric: IC50

compound | reported-value
Cc1ccc(S(=O)(=O)Nc2ccc3c(c2)/C(=C/c2cccs2)C(=O)N3)cc1 | < 1000 nM
Cc1ccc(S(=O)(=O)Nc2ccc3c(c2)C(=Cc2nccn2C)C(=O)N3)cc1 (stereo in doubt) | < 1000 nM
Cc1ccc(S(=O)(=O)Nc2ccc3c(c2)/C(=C/c2cnc[nH]2)C(=O)N3)cc1 | < 1000 nM

----------
Test system: SW1736
procedure-text: MTT assay, ATC cell line, fixed concentrations
Format: cell-based
condition-info: Homo sapiens, SW-1736, 48 h, SW1736, 20 nM, read-out: % of proliferating cells
measured-metric: viability at 0.02 µM (%)

compound | target-desc | measured-metric | reported-value
Cc1ccc(S(=O)(=O)Nc2ccc3c(c2)/C(=C/c2cn[nH]c2)C(=O)N3)cc1 | SW1736 | viability at 0.02 µM | 77
Cc1ccc(S(=O)(=O)Nc2ccc3c(c2)/C(=C/c2ncc[nH]2)C(=O)N3)cc1 | SW1736 | viability at 0.02 µM | 80
Cc1ccc(S(=O)(=O)Nc2ccc3c(c2)C(=Cc2cccnc2N)C(=O)N3)cc1 [SB20A] | SW1736 | viability at 0.02 µM | 82
Cc1ccc(S(=O)(=O)Nc2ccc3c(c2)/C(=C/c2cnc[nH]2)C(=O)N3)cc1 | SW1736 | viability at 0.02 µM | 90
